Molecular target: Acetylcholinesterase (Homo sapiens)
Sequence (P22303 whole entry): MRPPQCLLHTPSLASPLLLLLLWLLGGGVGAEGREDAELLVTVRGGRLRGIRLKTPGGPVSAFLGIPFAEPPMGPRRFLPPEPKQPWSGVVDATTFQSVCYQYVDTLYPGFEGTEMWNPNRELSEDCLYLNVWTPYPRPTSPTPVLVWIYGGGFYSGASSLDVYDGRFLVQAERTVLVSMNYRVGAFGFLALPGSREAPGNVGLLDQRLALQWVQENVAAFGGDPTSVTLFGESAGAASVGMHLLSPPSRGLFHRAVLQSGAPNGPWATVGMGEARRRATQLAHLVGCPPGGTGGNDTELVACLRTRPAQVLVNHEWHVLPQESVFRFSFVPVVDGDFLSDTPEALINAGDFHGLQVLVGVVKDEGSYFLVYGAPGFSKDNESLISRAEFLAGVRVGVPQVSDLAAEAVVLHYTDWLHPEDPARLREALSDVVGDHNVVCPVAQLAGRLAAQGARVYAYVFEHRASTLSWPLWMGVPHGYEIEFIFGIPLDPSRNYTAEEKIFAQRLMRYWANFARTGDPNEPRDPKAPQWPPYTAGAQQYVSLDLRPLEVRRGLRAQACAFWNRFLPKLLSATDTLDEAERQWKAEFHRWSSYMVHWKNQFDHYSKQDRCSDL
Assay: Inhibition of AChE in human erythrocyte hemo-lyzates pre-incubated for 5 mins before addition of acetylthiocholine iodide substrate by Ellman's method
Format: tissue-based
reported.metric: IC50

[[record]]
smiles_string = "COc1ccc2[nH]cc(CCNC(=O)CN(CCCCCCCCNc3c4c(nc5ccccc35)CCCC4)C(=O)/C=C/c3ccc(O)c(OC)c3)c2c1"
tgt = "Acetylcholinesterase (Homo sapiens)"
reported_metric = "IC50"
assay_result = "43.7 nM"

[[record]]
smiles_string = "COc1ccc2nc3c(c(NCCCCCCCN(CC(=O)NCCc4c[nH]c5ccc(OC)cc45)C(=O)CCCC[C@@H]4CCSS4)c2c1)CCCC3"
tgt = "Acetylcholinesterase (Homo sapiens)"
reported_metric = "IC50"
assay_result = "> 10000 nM"

[[record]]
smiles_string = "COc1ccc2[nH]cc(CCNC(=O)CN(CCCCCCCCNc3c4c(nc5ccccc35)CCCC4)C(=O)CCCC[C@@H]3CCSS3)c2c1"
tgt = "Acetylcholinesterase (Homo sapiens)"
reported_metric = "IC50"
assay_result = "180 nM"

[[record]]
smiles_string = "COc1ccc2nc3c(c(NCCCCCCN(CC(=O)NCCc4c[nH]c5ccc(OC)cc45)C(=O)/C=C/c4ccc(O)c(OC)c4)c2c1)CCCC3"
tgt = "Acetylcholinesterase (Homo sapiens)"
reported_metric = "IC50"
assay_result = "> 10000 nM"

[[record]]
smiles_string = "COc1ccc2nc3c(c(NCCCCCCCCN(CC(=O)NCCc4c[nH]c5ccc(OC)cc45)C(=O)/C=C/c4ccc(O)c(OC)c4)c2c1)CCCC3"
tgt = "Acetylcholinesterase (Homo sapiens)"
reported_metric = "IC50"
assay_result = "> 10000 nM"

[[record]]
smiles_string = "COc1ccc2nc3c(c(NCCCCCCN(CC(=O)NCCc4c[nH]c5ccc(OC)cc45)C(=O)CCCC[C@@H]4CCSS4)c2c1)CCCC3"
tgt = "Acetylcholinesterase (Homo sapiens)"
reported_metric = "IC50"
assay_result = "> 10000 nM"

[[record]]
smiles_string = "COc1ccc2nc3c(c(NCCCCCCCCN(CC(=O)NCCc4c[nH]c5ccc(OC)cc45)C(=O)CCCC[C@@H]4CCSS4)c2c1)CCCC3"
tgt = "Acetylcholinesterase (Homo sapiens)"
reported_metric = "IC50"
assay_result = "> 10000 nM"

[[record]]
smiles_string = "COc1ccc2nc3c(c(NCCCCCCCN(CC(=O)NCCc4c[nH]c5ccc(OC)cc45)C(=O)/C=C/c4ccc(O)c(OC)c4)c2c1)CCCC3"
tgt = "Acetylcholinesterase (Homo sapiens)"
reported_metric = "IC50"
assay_result = "1290 nM"


----------
Consider compounds characterized by their log10 of IC50 with Cholinesterase (Homo sapiens, UniProt P06276).
Sequence (P06276 whole entry): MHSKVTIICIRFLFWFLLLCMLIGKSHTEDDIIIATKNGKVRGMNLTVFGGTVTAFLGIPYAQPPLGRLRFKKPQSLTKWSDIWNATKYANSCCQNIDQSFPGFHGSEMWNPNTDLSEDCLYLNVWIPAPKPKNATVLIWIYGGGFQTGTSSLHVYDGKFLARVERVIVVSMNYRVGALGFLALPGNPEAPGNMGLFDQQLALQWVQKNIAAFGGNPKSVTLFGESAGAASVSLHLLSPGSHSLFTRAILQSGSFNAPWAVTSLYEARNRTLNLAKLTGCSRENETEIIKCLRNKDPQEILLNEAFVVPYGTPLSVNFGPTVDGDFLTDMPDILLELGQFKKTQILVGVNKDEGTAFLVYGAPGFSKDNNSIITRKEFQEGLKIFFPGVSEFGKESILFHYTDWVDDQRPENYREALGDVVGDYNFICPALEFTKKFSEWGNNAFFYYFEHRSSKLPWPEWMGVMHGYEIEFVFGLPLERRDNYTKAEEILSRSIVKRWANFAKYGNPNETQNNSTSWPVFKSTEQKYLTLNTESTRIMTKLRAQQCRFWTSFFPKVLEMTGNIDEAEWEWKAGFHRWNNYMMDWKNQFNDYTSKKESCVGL
reported.metric: log10 of IC50 (log10 of the value in nM)

[[record]]
smiles_string = "COc1ccc2[nH]cc(CCNC(=O)CN(CCCCCCCCNc3c4c(nc5ccccc35)CCCC4)C(=O)CCCC[C@@H]3CCSS3)c2c1"
reported_metric = "log10 of IC50"
assay_result = 2.32

[[record]]
smiles_string = "COc1ccc2nc3c(c(NCCCCCCCN(CC(=O)NCCc4c[nH]c5ccc(OC)cc45)C(=O)/C=C/c4ccc(O)c(OC)c4)c2c1)CCCC3"
reported_metric = "log10 of IC50"
assay_result = 2.37

[[record]]
smiles_string = "COc1ccc2[nH]cc(CCNC(=O)CN(CCCCCCCCNc3c4c(nc5ccccc35)CCCC4)C(=O)/C=C/c3ccc(O)c(OC)c3)c2c1"
reported_metric = "log10 of IC50"
assay_result = 1.37

[[record]]
smiles_string = "COc1ccc2nc3c(c(NCCCCCCN(CC(=O)NCCc4c[nH]c5ccc(OC)cc45)C(=O)/C=C/c4ccc(O)c(OC)c4)c2c1)CCCC3"
reported_metric = "log10 of IC50"
assay_result = 2.55

[[record]]
smiles_string = "COc1ccc2nc3c(c(NCCCCCCCN(CC(=O)NCCc4c[nH]c5ccc(OC)cc45)C(=O)CCCC[C@@H]4CCSS4)c2c1)CCCC3"
reported_metric = "log10 of IC50"
assay_result = 3.42

[[record]]
smiles_string = "COc1ccc2nc3c(c(NCCCCCCCCN(CC(=O)NCCc4c[nH]c5ccc(OC)cc45)C(=O)CCCC[C@@H]4CCSS4)c2c1)CCCC3"
reported_metric = "log10 of IC50"
assay_result = 3.24

[[record]]
smiles_string = "COc1ccc2nc3c(c(NCCCCCCCCN(CC(=O)NCCc4c[nH]c5ccc(OC)cc45)C(=O)/C=C/c4ccc(O)c(OC)c4)c2c1)CCCC3"
reported_metric = "log10 of IC50"
assay_result = 2.53

[[record]]
smiles_string = "COc1ccc2nc3c(c(NCCCCCCN(CC(=O)NCCc4c[nH]c5ccc(OC)cc45)C(=O)CCCC[C@@H]4CCSS4)c2c1)CCCC3"
reported_metric = "log10 of IC50"
assay_result = 3.27


----------
The following molecules have recorded pIC50 on UniProt P81908.
Sequence (P81908 whole entry): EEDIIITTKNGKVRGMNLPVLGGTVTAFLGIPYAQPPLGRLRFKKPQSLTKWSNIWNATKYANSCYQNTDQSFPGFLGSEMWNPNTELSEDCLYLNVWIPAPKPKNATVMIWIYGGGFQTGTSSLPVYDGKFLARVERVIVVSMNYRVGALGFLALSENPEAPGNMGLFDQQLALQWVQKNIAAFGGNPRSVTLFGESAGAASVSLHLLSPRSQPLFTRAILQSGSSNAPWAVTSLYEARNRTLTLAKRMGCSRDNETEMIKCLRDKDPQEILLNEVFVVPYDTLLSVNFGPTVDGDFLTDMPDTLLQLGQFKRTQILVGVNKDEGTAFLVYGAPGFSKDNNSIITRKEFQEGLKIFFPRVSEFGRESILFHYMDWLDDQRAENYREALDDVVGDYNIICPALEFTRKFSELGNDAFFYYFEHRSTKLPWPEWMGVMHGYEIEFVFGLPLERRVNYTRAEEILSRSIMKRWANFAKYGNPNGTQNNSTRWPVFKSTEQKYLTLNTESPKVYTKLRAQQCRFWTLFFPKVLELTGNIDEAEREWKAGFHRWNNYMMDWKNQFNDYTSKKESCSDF
pIC50: −log10 of the molar value.
reported.metric: pIC50

[[record]]
smiles_string = "COc1ccc2nc3c(c(NCCCCCCN(CC(=O)NCCc4c[nH]c5ccc(OC)cc45)C(=O)CCCC[C@@H]4CCSS4)c2c1)CCCC3"
reported_metric = "pIC50"
assay_result = 8.41

[[record]]
smiles_string = "COc1ccc2nc3c(c(NCCCCCCCN(CC(=O)NCCc4c[nH]c5ccc(OC)cc45)C(=O)/C=C/c4ccc(O)c(OC)c4)c2c1)CCCC3"
reported_metric = "pIC50"
assay_result = 8.54

[[record]]
smiles_string = "COc1ccc2nc3c(c(NCCCCCCN(CC(=O)NCCc4c[nH]c5ccc(OC)cc45)C(=O)/C=C/c4ccc(O)c(OC)c4)c2c1)CCCC3"
reported_metric = "pIC50"
assay_result = 8.53

[[record]]
smiles_string = "COc1ccc2nc3c(c(NCCCCCCCCN(CC(=O)NCCc4c[nH]c5ccc(OC)cc45)C(=O)/C=C/c4ccc(O)c(OC)c4)c2c1)CCCC3"
reported_metric = "pIC50"
assay_result = 7.92

[[record]]
smiles_string = "COc1ccc2nc3c(c(NCCCCCCCCN(CC(=O)NCCc4c[nH]c5ccc(OC)cc45)C(=O)CCCC[C@@H]4CCSS4)c2c1)CCCC3"
reported_metric = "pIC50"
assay_result = 8.09

[[record]]
smiles_string = "COc1ccc2nc3c(c(NCCCCCCCN(CC(=O)NCCc4c[nH]c5ccc(OC)cc45)C(=O)CCCC[C@@H]4CCSS4)c2c1)CCCC3"
reported_metric = "pIC50"
assay_result = 8.27

[[record]]
smiles_string = "COc1ccc2[nH]cc(CCNC(=O)CN(CCCCCCCCNc3c4c(nc5ccccc35)CCCC4)C(=O)/C=C/c3ccc(O)c(OC)c3)c2c1"
reported_metric = "pIC50"
assay_result = 8.65

[[record]]
smiles_string = "COc1ccc2[nH]cc(CCNC(=O)CN(CCCCCCCCNc3c4c(nc5ccccc35)CCCC4)C(=O)CCCC[C@@H]3CCSS3)c2c1"
reported_metric = "pIC50"
assay_result = 8.90


----------
Tested on: SH-SY5Y
Experiment: Neuroprotection in human SH-SY5Y cells assessed as reduction in beta-amyloid peptide (1-42)-induced cell death at 1 uM incubated for 24 hrs by MTT assay
Format: functional
Parameters: scale not given: the % may be the effect or the level left
So basically, if Activity comes in under 40% it's yes (1), and if it's 40% or more it's no (0).

[[record]]
smiles_string = "COc1ccc2nc3c(c(NCCCCCCCN(CC(=O)NCCc4c[nH]c5ccc(OC)cc45)C(=O)/C=C/c4ccc(O)c(OC)c4)c2c1)CCCC3"
assigned_class = "no (0)"

[[record]]
smiles_string = "COc1ccc2[nH]cc(CCNC(=O)CN(CCCCCCCCNc3c4c(nc5ccccc35)CCCC4)C(=O)/C=C/c3ccc(O)c(OC)c3)c2c1"
assigned_class = "yes (1)"

[[record]]
smiles_string = "COc1ccc2nc3c(c(NCCCCCCCCN(CC(=O)NCCc4c[nH]c5ccc(OC)cc45)C(=O)/C=C/c4ccc(O)c(OC)c4)c2c1)CCCC3"
assigned_class = "yes (1)"

[[record]]
smiles_string = "COc1ccc2nc3c(c(NCCCCCCN(CC(=O)NCCc4c[nH]c5ccc(OC)cc45)C(=O)/C=C/c4ccc(O)c(OC)c4)c2c1)CCCC3"
assigned_class = "no (0)"


----------
Assay: in vitro
Conditions: human, HepG2 cells
Description: Toxicity in human HepG2 cells assessed as cell viability at 100 uM by MTT assay relative to control
# note: boundary value 70% maps to 0; viability at 100 µM below it maps to 1

[[record]]
smiles_string = "COc1ccc2[nH]cc(CCNC(=O)CN(CCCCCCCCNc3c4c(nc5ccccc35)CCCC4)C(=O)/C=C/c3ccc(O)c(OC)c3)c2c1"
assigned_class = 1

[[record]]
smiles_string = "COc1ccc2[nH]cc(CCNC(=O)CN(CCCCCCCCNc3c4c(nc5ccccc35)CCCC4)C(=O)CCCC[C@@H]3CCSS3)c2c1"
assigned_class = 0

[[record]]
smiles_string = "COc1ccc2nc3c(c(NCCCCCCCCN(CC(=O)NCCc4c[nH]c5ccc(OC)cc45)C(=O)CCCC[C@@H]4CCSS4)c2c1)CCCC3"
assigned_class = 0

[[record]]
smiles_string = "COc1ccc2nc3c(c(NCCCCCCCN(CC(=O)NCCc4c[nH]c5ccc(OC)cc45)C(=O)/C=C/c4ccc(O)c(OC)c4)c2c1)CCCC3"
assigned_class = 0

[[record]]
smiles_string = "COc1ccc2nc3c(c(NCCCCCCCCN(CC(=O)NCCc4c[nH]c5ccc(OC)cc45)C(=O)/C=C/c4ccc(O)c(OC)c4)c2c1)CCCC3"
assigned_class = 1

[[record]]
smiles_string = "COc1ccc2[nH]cc(CCNC(C)=O)c2c1"
assigned_class = 0

[[record]]
smiles_string = "COc1ccc2nc3c(c(NCCCCCCCN(CC(=O)NCCc4c[nH]c5ccc(OC)cc45)C(=O)CCCC[C@@H]4CCSS4)c2c1)CCCC3"
assigned_class = 1


Recorded values, source ChEMBL document CHEMBL4680085.
